Data credit: patent US20170158755A1

Target: His-LAMA4 as used in Example 6 (species not stated) (Homo sapiens (Human)) (UniProt Q16363)
Assay: ForteBio BLI, LAMA-His on anti-His sensor, antibody 16.7 nM
In this section we review reported kon values for a set of binders.
# output: bare number, implied unit M⁻¹ s⁻¹

// below: answered binders
binder | scaleUnit | kon
humanized 19C12 antibody H3L6 (antibody, V domains shown) VH: EVQLQQSGAELVKPGASVKVSCKASGYAFSTYWMNWVRQAPGQGLEWIGQIYPGDGDTNYNGKFKGRVTITADKSTSTAYMELSSLRSEDTAVYFCARSDGYYDYWGQGTTVTVSS VL: DIVLTQSPASLAVSLGERATISCRASESVDSYGTSFMHWYQQKPGQPPKLLISLASSLESGVPARFSGSGSGTDFTLTISPVEAEDAATYYCQQNNEDPPTFGAGTKLEIKR | M⁻¹ s⁻¹ | 8.01e+06
chimeric 19C12 antibody (antibody, V domains shown) VH: QVQLQQSGAELVKPGASVKISCKASGYAFSTYWMNWVKQRPGEGLEWIGQIYPGDGDTNYNGKFKGKATLTADKSSSTAYMQLSSLTSEDSAVYFCARSDGYYDYWGQGTTLTVSS VL: NIVLTQSPASLAVSLGQRATISCRASESVDSYGTSFMHWYQQKPGQPPKLLICLASSLESGVPARFSGSGSRTDFTLTIDPVEADDAATYYCQQNNEDPPTFGAGTKLELKR | M⁻¹ s⁻¹ | 7.49e+06
humanized 19C12 antibody H2L4 (antibody, V domains shown) VH: QVQLQQSGAELVKPGASVKVSCKASGYAFSTYWMNWVRQAPGQGLEWIGQIYPGDGDTNYNGKFKGRVTITADKSTSTAYMELSSLRSEDTAVYFCARSDGYYDYWGQGTTVTVSS VL: NIVLTQSPASLAVSLGERATISCRASESVDSYGTSFMHWYQQKPGQPPKLLISLASSLESGVPARFSGSGSGTDFTLTISPVEAEDAATYYCQQNNEDPPTFGAGTKLEIKR | M⁻¹ s⁻¹ | 9.98e+06

We now examine a further binder.
In: Given the entry humanized 19C12 antibody H2L3 (antibody, V domains shown) VH: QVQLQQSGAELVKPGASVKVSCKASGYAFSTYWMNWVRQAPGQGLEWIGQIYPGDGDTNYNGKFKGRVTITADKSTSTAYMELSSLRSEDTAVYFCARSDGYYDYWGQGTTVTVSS VL: NIVLTQSPASLAVSLGERATISCRASESVDSYGTSFMHWYQQKPGQPPKLLICLASSLESGVPARFSGSGSRTDFTLTIDPVEAEDAATYYCQQNNEDPPTFGAGTKLEIKR , report its measured kon.
Out: 7.16e+06
